Molecular target: human ASK1 (Homo sapiens, UniProt Q99683)
Construct: a 2.2 kb DNA fragment containing an ASK1 gene was recovered from the gel
Assay: Scintillation assay measuring inhibition of ASK1 phosphorylation of myelin basic protein
Conditions: active ASK1 protein 30 ng, myelin basic protein 1 μg, [γ-32P]ATP, room temperature 30 min; values given as ranges; read-out: Enzyme Activity IC50
pIC50: −log10 of the molar value.
endpoint: pIC50

# compound, measured on, test result
data = [
    ("COc1cccc(-c2cc(NC(=O)c3ccc(C(C)(C)C)cc3)nc3ccnn23)c1", "human ASK1 (Homo sapiens, UniProt Q99683)", "> 7.00"),
    ("COc1ccc(-c2cc(NC(=O)c3ccc(C(C)(C)C)cc3)nc3ccnn23)cc1", "human ASK1 (Homo sapiens, UniProt Q99683)", "> 7.00"),
    ("CC(C)(C)c1ccc(C(=O)Nc2cc(N3CCCC(C(N)=O)C3)n3nccc3n2)cc1 (stereo not shown)", "human ASK1 (Homo sapiens, UniProt Q99683)", "> 7.00"),
    ("Cc1cc2nc(NC(=O)c3ccc(C(C)(C)CO)cc3)cc(N(C)CCc3ccccc3)n2n1", "human ASK1 (Homo sapiens, UniProt Q99683)", "< 6.00"),
]

* * *

Biological target: human ASK1 (Homo sapiens, UniProt Q99683)
Construct: a 2.2 kb DNA fragment containing an ASK1 gene was recovered from the gel
Experiment: Scintillation assay measuring inhibition of ASK1 phosphorylation of myelin basic protein
Conditions: active ASK1 protein 30 ng, myelin basic protein 1 μg, [γ-32P]ATP, room temperature 30 min; values given as ranges; read-out: Enzyme Activity IC50
pIC50: −log10 of the molar value. Where a name gives a salt, the structure may show the parent alone.

# molecule, pIC50
records = [
    ("Cc1cc2nc(N)cc(-c3cccc(CO)c3)n2n1 [Compound 173]", "< 6.00"),
    ("CC(C)(C)c1ccc(C(=O)Nc2cc(-c3cccc(CCO)c3)n3nccc3n2)cc1 [Compound 10]", "> 7.00"),
    ("CN(C)c1cc(NC(=O)c2ccc(C(C)(C)C)cc2)nc2ccnn12 [Compound 125]", "> 7.00"),
    ("CC(C)(O)c1ccc(C(=O)Nc2cc(N3CCN(S(C)(=O)=O)CC3)n3nccc3n2)cc1 [Compound 90]", "6.00 to 7.00"),
    ("CC(C)(C)c1ccc(C(=O)Nc2cc(-c3cccs3)n3nccc3n2)cc1 [Compound 2]", "> 7.00"),
    ("CC(C)(C)c1ccc(C(=O)Nc2cc(-c3cccc(CC#N)c3)n3nccc3n2)cc1 [Compound 34]", "> 7.00"),
    ("CC(C)(C)c1ccc(C(=O)Nc2cc(N3CCOCC3)n3nccc3n2)cc1 [Compound 65, trifluoroacetate salt]", "> 7.00"),
    ("CC(C)(O)c1ccc(C(=O)Nc2cc(N3CCC[C@H](O)C3)n3nccc3n2)cc1 [Compound 78]", "6.00 to 7.00"),
]

* * *

Molecular target: human ASK1 (Homo sapiens, UniProt Q99683)
Construct: a 2.2 kb DNA fragment containing an ASK1 gene was recovered from the gel
Test: Scintillation assay measuring inhibition of ASK1 phosphorylation of myelin basic protein
Details: active ASK1 protein 30 ng, myelin basic protein 1 μg, [γ-32P]ATP, room temperature 30 min; values given as ranges; read-out: Enzyme Activity IC50
Procedure: Cloning of cDNA encoding human ASK1 was conducted by PCR using primers, 5′-[…] AGAGAAGGGGA-3′ (SEQ ID NO: 1) and 5′-[…]-3′ (SEQ ID NO: 2), from human heart cDNA library (Becton, Dickinson and Company). […] The enzyme activities of selected compounds of the present invention against ASK1 were determined using the assay disclosed in Example A and B. The resulted pIC50 values are reported in Table 1.
pIC50: −log10 of the molar value.

# molecule, pIC50
records = [
    ("CC(=O)c1cccc(-c2cc(NC(=O)c3ccc(C(C)(C)C)cc3)nc3ccnn23)c1", "< 6.00"),
    ("Nc1cc(-c2cccc(CO)c2)n2nccc2n1", "< 6.00"),
    ("CC(C)(O)c1ccc(C(=O)Nc2cc(N3CC[C@H](O)C3)n3nccc3n2)cc1", "6.00 to 7.00"),
    ("CC(C)(C)c1ccc(C(=O)Nc2cc(-c3cccc(CCCO)c3)n3nccc3n2)cc1", "> 7.00"),
    ("CC(C)(O)c1ccc(C(=O)Nc2cc(N3CCC[C@@H](C(N)=O)C3)n3nccc3n2)cc1", "> 7.00"),
    ("CC(C)(O)c1ccc(C(=O)Nc2cc(N3CCCC3)n3nccc3n2)cc1", "> 7.00"),
    ("CC(C)(C)c1ccc(C(=O)Nc2cc(N3CCc4ccccc4C3)n3nccc3n2)cc1", "> 7.00"),
    ("CC(C)(O)c1ccc(C(=O)Nc2cc(N3CCC[C@H](C(N)=O)C3)n3nccc3n2)cc1", "6.00 to 7.00"),
    ("CC(C)(O)c1ccc(C(=O)Nc2cc(-c3ccc(C(F)(F)F)cc3)n3nccc3n2)cc1", "6.00 to 7.00"),
    ("Cc1cc2nc(NC(=O)c3ccc(C(C)(C)C)cc3)cc(-c3cccc(CCCO)c3)n2n1", "> 7.00"),
    ("Cc1cc2nc(NC(=O)c3ccc(C(C)(C)O)cc3)cc(-c3ccccc3)n2n1", "> 7.00"),
    ("Cc1cc2nc(NC(=O)c3ccc(C(C)(C)C)cc3)cc(-c3cccc(CO)c3)n2n1", "> 7.00"),
    ("CC(C)(C)c1ccc(C(=O)Nc2cc(-c3ccc(S(C)(=O)=O)cc3)n3nccc3n2)cc1", "< 6.00"),
    ("CC(O)(c1ccc(C(=O)Nc2cc(-c3cccc(CO)c3)n3nccc3n2)cc1)C(F)(F)F (centres unmarked)", "> 7.00"),
]

* * *

Target: human ASK1 (Homo sapiens, UniProt Q99683)
Construct: a 2.2 kb DNA fragment containing an ASK1 gene was recovered from the gel
Sequence (Q99683 649-1374 limits assumed): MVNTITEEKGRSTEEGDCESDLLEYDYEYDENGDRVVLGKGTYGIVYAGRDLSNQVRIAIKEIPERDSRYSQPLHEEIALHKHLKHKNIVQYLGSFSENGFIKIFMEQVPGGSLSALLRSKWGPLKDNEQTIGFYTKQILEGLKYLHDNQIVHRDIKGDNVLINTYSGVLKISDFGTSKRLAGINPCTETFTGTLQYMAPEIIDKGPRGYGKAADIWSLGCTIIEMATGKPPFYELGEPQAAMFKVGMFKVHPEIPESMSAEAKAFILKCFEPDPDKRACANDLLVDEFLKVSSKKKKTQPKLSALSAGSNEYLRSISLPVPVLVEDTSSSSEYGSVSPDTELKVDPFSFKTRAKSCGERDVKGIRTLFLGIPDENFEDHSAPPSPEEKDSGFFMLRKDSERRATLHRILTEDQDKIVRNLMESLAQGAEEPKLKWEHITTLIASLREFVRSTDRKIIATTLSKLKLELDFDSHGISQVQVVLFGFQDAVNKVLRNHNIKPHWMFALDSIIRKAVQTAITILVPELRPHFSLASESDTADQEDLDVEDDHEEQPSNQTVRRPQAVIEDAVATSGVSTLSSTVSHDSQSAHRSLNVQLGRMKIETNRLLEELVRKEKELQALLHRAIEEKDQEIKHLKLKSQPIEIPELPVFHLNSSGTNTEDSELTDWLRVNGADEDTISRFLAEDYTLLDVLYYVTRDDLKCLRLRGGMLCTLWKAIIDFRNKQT
Assay: Scintillation assay measuring inhibition of ASK1 phosphorylation of myelin basic protein
Conditions: active ASK1 protein 30 ng, myelin basic protein 1 μg, [γ-32P]ATP, room temperature 30 min; values given as ranges; read-out: Enzyme Activity IC50
pIC50: −log10 of the molar value.
Listing of recorded pIC50 by entry.
endpoint: pIC50

# compound, test result
rows = [
    ("CC(C)(O)c1ccc(C(=O)Nc2cc(N3CCn4cnnc4C3)n3nccc3n2)cc1 [Compound 91]", "< 6.00"),
    ("CC(C)(O)c1ccc(C(=O)Nc2cc(-c3ccoc3)n3nccc3n2)cc1 [Compound 18]", "6.00 to 7.00"),
    ("CC(=O)NC1CCN(c2cc(NC(=O)[C@@H]3C[C@H]3c3ccccc3)nc3cc(C)nn23)CC1 [Compound 356]", "> 7.00"),
    ("CC(C)(O)c1ccc(C(=O)Nc2cc(N3CCc4[nH]ncc4C3)n3nccc3n2)cc1 [Compound 79]", "6.00 to 7.00"),
    ("CC(C)(O)c1ccc(C(=O)Nc2cc(N3CCc4ccccc4C3)n3nccc3n2)cc1 [Compound 64]", "> 7.00"),
    ("COc1ccc(-c2cc(NC(=O)c3ccc(C(C)(C)O)cc3)nc3ccnn23)cc1 [Compound 19]", "> 7.00"),
    ("CC(C)(O)c1ccc(C(=O)Nc2cc(N3CCC[C@H]3C(N)=O)n3nccc3n2)cc1 [Compound 92]", "< 6.00"),
    ("Cc1cc2nc(NC(=O)c3ccc(C(C)(C)C)cc3)cc(-c3ccc(F)c(CO)c3)n2n1 [Compound 4]", "> 7.00"),
    ("CC(C)(O)c1ccc(C(=O)Nc2cc(N3CC[C@@H](O)C3)n3nccc3n2)cc1 [Compound 69]", "6.00 to 7.00"),
    ("CC(C)(O)c1ccc(C(=O)Nc2cc(N3CCc4nc[nH]c(=O)c4C3)n3nccc3n2)cc1 [Compound 89]", "> 7.00"),
    ("CSc1ccc(-c2cc(NC(=O)c3ccc(C(C)(C)O)cc3)nc3ccnn23)cc1 [Compound 23]", "> 7.00"),
    ("CC(C)(O)c1ccc(C(=O)Nc2cc(-c3ccc(C(N)=O)cc3)n3nccc3n2)cc1 [Compound 22]", "6.00 to 7.00"),
    ("Cc1cc2nc(NC(=O)[C@@H]3C[C@H]3c3ccc(F)cc3)cc(N3CCC(NC(N)=O)CC3)n2n1 (racemic) [Compound 362]", "> 7.00"),
    ("CC(C)(C)c1ccc(C(=O)Nc2cc(NC3CC3)n3nccc3n2)cc1 [Compound 128]", "> 7.00"),
    ("CC(C)(O)c1ccc(C(=O)Nc2cc(N3CCC[C@H]3CO)n3nccc3n2)cc1 [Compound 67]", "6.00 to 7.00"),
    ("CC(C)(C)c1ccc(C(=O)Nc2cc(N3CCC[C@@H](O)C3)n3nccc3n2)cc1 [Compound 77]", "> 7.00"),
    ("CC(C)(O)c1ccc(C(=O)Nc2cc(N3CCC(CCO)CC3)n3nccc3n2)cc1 [Compound 71]", "> 7.00"),
    ("Cc1cc2nc(NC(=O)c3ccc(C(C)(C)CO)cc3)cc(N3CCC[C@H]3CO)n2n1 [Compound 95]", "6.00 to 7.00"),
    ("CC(C)(O)c1ccc(C(=O)Nc2cc(N3CCCCC3CCO)n3nccc3n2)cc1 (stereo not drawn) [Compound 74]", "6.00 to 7.00"),
    ("CC(C)(O)c1ccc(C(=O)Nc2cc(N3CCC[C@H](C(=O)O)C3)n3nccc3n2)cc1 [Compound 86]", "< 6.00"),
    ("Cc1cc2nc(NC(=O)c3ccc(C(C)(C)O)cc3)cc(N3CC[C@@H](O)C3)n2n1 [Compound 203]", "> 7.00"),
    ("Nc1cc(-c2cccs2)n2nccc2n1 [Compound 175]", "< 6.00"),
    ("CC(C)(O)c1ccc(C(=O)Nc2cc(-c3cccc(CC#N)c3)n3nccc3n2)cc1 [Compound 21]", "6.00 to 7.00"),
    ("CC(C)(O)c1ccc(C(=O)Nc2cc(N3CCC[C@@H](O)C3)n3nccc3n2)cc1 [Compound 76]", "6.00 to 7.00"),
    ("CC(C)(C)c1ccc(C(=O)Nc2cc(N3CCC(O)CC3)n3nccc3n2)cc1 [Compound 112]", "> 7.00"),
    ("CC(C)(C)c1ccc(C(=O)Nc2cc(-c3ccc(C(N)=O)cc3)n3nccc3n2)cc1 [Compound 42]", "> 7.00"),
    ("CC(C)(O)c1ccc(C(=O)Nc2cc(-c3cccc(CO)c3)n3nccc3n2)cc1 [Compound 6]", "> 7.00"),
    ("Cc1cc2nc(NC(=O)c3ccc(C(C)(C)CO)cc3)cc(-c3ccccc3)n2n1 [Compound 29]", "> 7.00"),
    ("Cc1cc2nc(NC(=O)[C@@H]3C[C@H]3c3ccccc3)cc(-c3ccccc3)n2n1 [Compound 347]", "> 7.00"),
    ("CC(C)(O)c1ccc(C(=O)Nc2cc(-c3cccc(NS(C)(=O)=O)c3)n3nccc3n2)cc1 [Compound 17]", "6.00 to 7.00"),
    ("CC(C)(O)c1ccc(C(=O)Nc2cc(N3CCC(O)CC3)n3nccc3n2)cc1 [Compound 73]", "6.00 to 7.00"),
    ("COc1ccc(-c2cc(NC(=O)c3ccc(C(C)(C)C)cc3)nc3ccnn23)cn1 [Compound 13]", "< 6.00"),
    ("CC(=O)Nc1ccc(-c2cc(NC(=O)c3ccc(C(C)(C)C)cc3)nc3ccnn23)cn1 [Compound 14]", "6.00 to 7.00"),
]

Recorded values, source patent US8921358B2.
